Numbers sourced from ChEMBL document CHEMBL1201862.

- System: HOP-62
- test summary: NCI tumour cell line growth inhibition, 48 h
The source made the active and inactive calls. Rule as the data show it: active = GI50 up to about 1.1 µM and inactive = higher.
Your reply should match one of these outcome classes. t = active, f = inactive

Prompt: Outcome? C/C=C/[P+](c1ccccc1)(c1ccccc1)c1ccccc1
Completion: f

Prompt: Outcome logged for CC(=O)OCC1OC(n2cc(F)c(=O)[nH]c2=O)C(OC(C)=O)C1OC(C)=O (stereo unspecified) in this assay:
Completion: f

Prompt: Recorded test call requested for O=C1CC(Sc2nc3ccc(I)cc3c(=O)n2Cc2ccccc2)C(=O)NN1 (stereo unspecified)
Completion: f

Prompt: Hi team, can someone confirm the assay call for CN(C)CCNC(=O)c1cccc2ccc(-c3ccc(Br)cc3)nc12 ?
Completion: t

Prompt: Field: outcome | Entry: COc1ccc2c(c1)CCCN1CCc3ccccc3C21 (stereo unspecified)
Completion: f

Prompt: Field: outcome | Entry: COc1cc2c(cc1OC)C1C(O)C(OC)C(Br)C3(Br)CCN(C2)C13 (stereo unspecified)
Completion: f

Prompt: # lookup: test call for CCOC(=O)C1C(=O)CC(O)(c2ccccc2)C(C(=O)OCC)C1c1ccc(N(C)C)cc1 (stereo unspecified)
Completion: f

Prompt: Record lookup: outcome of this test for N#C/C(=C/c1ccc[nH]1)P(=O)(O)O ?
Completion: f

Prompt: What is the recorded call for this molecule in the test? Cn1c(CO)ccc1-c1ccc(-c2ccc(CO)[se]2)[se]1
Completion: f

Prompt: Record request — test call for NS(=O)(=O)c1ccc(-n2c(-c3cccs3)nc3ccc(I)cc3c2=O)cc1
Completion: f

Prompt: Would you mind telling me which call this test gave CN(/N=C/c1ccccc1C(=O)O)C1=NCCCCN1 ?
Completion: f
